# Test system: Staphylococcus aureus
# assay.text: Antibacterial activity against Staphylococcus aureus ATCC 6538 after 18 hrs by microdilution method
# Format: functional
# test.context: ATCC 6538, 18 h
Would you mind telling me the reported MIC of each entry?
Quick note: give the figure in mg/L, leave out the unit.

**Query** Give the reported value of MIC for this record: `COC(=O)[C@H](Cc1ccccc1)NCc1c2c(O)c3c(O)c(C)c4c(c3c1O)C(=O)[C@@](C)(O/C=C/[C@H](OC)[C@@H](C)[C@@H](OC(C)=O)[C@H](C)[C@H](O)[C@H](C)[C@@H](O)[C@@H](C)/C=C/C=C(/C)C(=O)N2)O4`
**Result** 0.063

**Query** Consider the molecule `CO[C@H]1/C=C/O[C@@]2(C)Oc3c(C)c(O)c4c(O)c(c(CN[C@@H](Cc5c[nH]c6ccccc56)C(=O)OCc5ccccc5)c(O)c4c3C2=O)NC(=O)/C(C)=C\C=C\[C@H](C)[C@H](O)[C@@H](C)[C@@H](O)[C@@H](C)[C@H](OC(C)=O)[C@@H]1C` and give its recorded MIC.
**Result** 1

---

# Tested on: Staphylococcus aureus
# assay.text: Antibacterial activity against methicillin resistant Staphylococcus aureus isolate 2 after 18 hrs by microdilution method
# Type: functional
# test.context: isolate 2, 18 h
quantity: MIC (µg/mL)
// return numeric value only (unit: µg/mL, not printed)

**Query** Specify measured MIC for `CCOC(=O)[C@H](Cc1ccccc1)NCc1c2c(O)c3c(O)c(C)c4c(c3c1O)C(=O)[C@@](C)(O/C=C/[C@H](OC)[C@@H](C)[C@@H](OC(C)=O)[C@H](C)[C@H](O)[C@H](C)[C@@H](O)[C@@H](C)/C=C/C=C(/C)C(=O)N2)O4` .
**Result** 0.125

**Query** Give a short answer stating reported MIC for `COC(=O)[C@H](Cc1cnc[nH]1)NCc1c2c(O)c3c(O)c(C)c4c(c3c1O)C(=O)[C@@](C)(O/C=C/[C@H](OC)[C@@H](C)[C@@H](OC(C)=O)[C@H](C)[C@H](O)[C@H](C)[C@@H](O)[C@@H](C)/C=C/C=C(/C)C(=O)N2)O4` .
**Result** 1

**Query** Identify MIC associated with the compound `CCOC(=O)[C@H](Cc1c[nH]c2ccccc12)NCc1c2c(O)c3c(O)c(C)c4c(c3c1O)C(=O)[C@@](C)(O/C=C/[C@H](OC)[C@@H](C)[C@@H](OC(C)=O)[C@H](C)[C@H](O)[C@H](C)[C@@H](O)[C@@H](C)/C=C/C=C(/C)C(=O)N2)O4`
**Result** 0.5

**Query** Please indicate MIC recorded for `COC(=O)[C@H](Cc1ccc(O)cc1)NCc1c2c(O)c3c(O)c(C)c4c(c3c1O)C(=O)[C@@](C)(O/C=C/[C@H](OC)[C@@H](C)[C@@H](OC(C)=O)[C@H](C)[C@H](O)[C@H](C)[C@@H](O)[C@@H](C)/C=C/C=C(/C)C(=O)N2)O4`
**Result** 1

**Query** Retrieve MIC measured for `CO[C@H]1/C=C/O[C@@]2(C)Oc3c(C)c(O)c4c(O)c(c(/C=N/N5CCN(C)CC5)c(O)c4c3C2=O)NC(=O)/C(C)=C\C=C\[C@H](C)[C@H](O)[C@@H](C)[C@@H](O)[C@@H](C)[C@H](OC(C)=O)[C@@H]1C` and print it.
**Result** 0.016

**Query** Give the value of MIC reported for the following: `CCOC(=O)[C@H](CCCNC(=N)N)NCc1c2c(O)c3c(O)c(C)c4c(c3c1O)C(=O)[C@@](C)(O/C=C/[C@H](OC)[C@@H](C)[C@@H](OC(C)=O)[C@H](C)[C@H](O)[C@H](C)[C@@H](O)[C@@H](C)/C=C/C=C(/C)C(=O)N2)O4`
**Result** 2
